TESTED_ON: recombinant human MGAT2 (Homo sapiens (Human), UniProt Q3SYC2)
Sequence (Q3SYC2 whole entry): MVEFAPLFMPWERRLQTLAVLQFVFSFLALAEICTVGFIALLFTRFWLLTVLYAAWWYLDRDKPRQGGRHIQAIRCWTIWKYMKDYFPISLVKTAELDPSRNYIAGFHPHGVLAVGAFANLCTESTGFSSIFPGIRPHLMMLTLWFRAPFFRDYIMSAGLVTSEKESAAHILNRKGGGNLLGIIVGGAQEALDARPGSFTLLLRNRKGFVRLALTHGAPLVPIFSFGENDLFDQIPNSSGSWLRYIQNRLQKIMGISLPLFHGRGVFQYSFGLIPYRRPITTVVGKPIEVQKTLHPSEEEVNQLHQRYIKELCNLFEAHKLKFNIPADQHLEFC
METHOD_DESCRIPTION: Measurement of human MGAT2 inhibitory activity
Type: biochemical
CONDITION: read-out: IC50 (concentration exhibiting 50% enzyme inhibition), Table 53
READOUT_TYPE: IC50 (µM)
Report the figure in µM without appending any unit label.

1. O=C(COC(F)(F)F)Nc1c2c(nn1CCC1CC1)C[C@]1(CCc3cc(OCC(F)(F)F)ccc31)NC2=O: 0.093
2. Cc1cc(-n2nc3c(c2NC(=O)CS(C)(=O)=O)C(=O)N[C@@]2(CCc4cc(Cl)ccc42)C3)nn1C: 0.0113
3. N#Cc1ccc(-n2nc3c(c2C(=O)NCCS(N)(=O)=O)C(=O)N[C@@]2(CCc4cc(OCC(F)(F)F)ccc42)C3)nc1: 0.0172
4. CS(=O)(=O)CC(=O)Nc1c2c(nn1-c1ccc(C(F)(F)F)nn1)C[C@]1(CCc3cc(OCC(F)(F)F)ccc31)NC2=O: 0.00172

Q: Please report the measured IC50 for CS(=O)(=O)CC(=O)Nc1c2c(nn1CCCOC(F)(F)F)C[C@@]1(CCc3cc(OCC(F)(F)F)ccc31)NC2=O
Result: 0.00156

Q: Please report the measured IC50 for COCCS(=O)(=O)NC(=O)c1c2c(nn1-c1ccc(C#N)cn1)C[C@]1(CCc3cc(OCC(F)(F)F)ccc31)NC2=O
Result: 0.428

Q: Please report the measured IC50 for CS(=O)(=O)CC(=O)Nc1c2c(nn1CCC1CC1)C[C@@]1(CCc3cc(OCCOCC(F)(F)F)ccc31)NC2=O
Result: 0.00476

Q: Please report the measured IC50 for CCOc1ccc2c(c1)CC[C@]21Cc2nn(-c3ccc(C)cn3)c(NC(=O)CS(C)(=O)=O)c2C(=O)N1
Result: 0.00702

Q: Please report the measured IC50 for CSCC(=O)Nc1c2c(nn1CCC1CC1)C[C@]1(CCc3cc(OCC(F)(F)F)ccc31)NC2=O
Result: 0.03

Q: Please report the measured IC50 for CNC(=O)c1c2c(nn1-c1ccc(C#N)cn1)C[C@]1(CCc3cc(OCC(F)(F)F)ccc31)NC2=O
Result: 0.0467

Q: Please report the measured IC50 for Cc1ccc(-n2nc3c(c2NC(=O)CS(C)(=O)=O)C(=O)N[C@](C)(c2ccc(OCC(F)F)cc2F)C3)nc1
Result: 0.00572

Q: Please report the measured IC50 for N#Cc1ccc(-n2nc3c(c2C(=O)NCC(O)c2ccccn2)C(=O)N[C@@]2(CCc4cc(OCC(F)(F)F)ccc42)C3)nc1 (some centres unmarked)
Result: 0.202

Q: Please report the measured IC50 for Cc1cc(-n2nc3c(c2C(=O)NCC#N)C(=O)N[C@@]2(CCc4cc(OCC(F)(F)F)ccc42)C3)no1
Result: 0.0101

----------
TESTED_ON: recombinant human MGAT2 (Homo sapiens (Human))
METHOD_DESCRIPTION: Measurement of human MGAT2 inhibitory activity
Format: biochemical
CONDITION: read-out: IC50 (concentration exhibiting 50% enzyme inhibition), Table 53
Labelling: IC50 reported below 20 nM becomes True; at or above becomes False.

Reference set (2 entries):
1) O=C1N[C@]2(CCc3cc(OCC(F)(F)F)ccc32)Cc2nn(CCC3CC3)c(CNc3ccnc(O)n3)c21: False
2) COCCCNC(=O)c1c2c(nn1-c1ccc(C#N)cn1)C[C@]1(CCc3cc(OCC(F)(F)F)ccc31)NC2=O: False

Q: State whether 20 nM exceeds IC50 recorded for CS(=O)(=O)CC(=O)Nc1c2c(nn1-c1ccc(C#N)cn1)CC1(CN(c3ccc(C(F)(F)F)cc3F)C1)NC2=O .
Result: True

Q: State whether 20 nM exceeds IC50 recorded for CS(=O)(=O)CC(=O)Nc1c2c(nn1-c1ccc(C3CC3)nn1)C[C@]1(CCc3cc(OCCCC(F)(F)F)ccc31)NC2=O .
Result: True

Q: State whether 20 nM exceeds IC50 recorded for N#Cc1ccc(-n2nc3c(c2C(=O)NS(=O)(=O)c2ccccc2)C(=O)N[C@@]2(CCc4cc(OCC(F)(F)F)ccc42)C3)nc1 .
Result: False

Q: State whether 20 nM exceeds IC50 recorded for NS(=O)(=O)CCNC(=O)c1c2c(nn1CCCOC(F)F)C[C@]1(CCc3cc(OCC(F)(F)F)ccc31)NC2=O .
Result: True

Q: State whether 20 nM exceeds IC50 recorded for COCCCn1nc2c(c1NC(=O)CS(C)(=O)=O)C(=O)N[C@@]1(CCOc3cc(OCC(F)(F)F)ccc31)C2 .
Result: True
